tested on: HCT116; assay: AC50 cell viability (CellTiter-Glo); higher = less potent; conditions: 48 h;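 further: HCT116 colorectal carcinoma cells screened at five concentrations per compound, luminescent viability scaled between DMSO wells and empty wells on each plate, curves fitted per compound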
Where a name gives a salt, the structure may show the parent alone.
value_kind: AC50 cell viability

These solved cases illustrate the format of a correct answer.
I'd like to know its AC50 cell viability. The molecule in question is CN1CCN(CC1)C2=CC3=C([NH]C(=N3)C/4=C(\N)C5=C(F)C=CC=C5NC4=O)C=C2 [Dovitinib]
8.33 µM

Similarly, COC(=O)[C@H]1[C@@H](O)[C@@]2(O)c3c(OC)cc(O[C@@H]4O[C@@H]([C@@H](O)CO)CO[C@H]4OC)cc3O[C@@]2(c2ccc(OC)cc2)[C@@H]1c1ccccc1 [Episilvestrol] ?
8.33 µM

Similarly, CN(C)C/C=C/C(=O)Nc1ccc(C(=O)N2CCC[C@@H](Nc3ncc(Cl)c(-c4c[nH]c5ccccc45)n3)C2)cc1 [THZ531] ?
0.132 µM

Similarly, "NC1(Cc2ccc(Cl)cc2)CCN(c2ncnc3[nH]ccc23)CC1" ?
13.2 µM

Similarly, CO[C@H]1C[C@@H]2CC[C@@H](C)[C@@](O)(O2)C(=O)C(=O)N2CCCC[C@H]2C(=O)O[C@H]([C@H](C)C[C@@H]2CC[C@@H](OP(C)(C)=O)[C@H](OC)C2)CC(=O)[C@H](C)/C=C(\C)[C@@H](O)[C@@H](OC)C(=O)[C@H](C)C[C@H](C)/C=C/C=C/C=C/1C [Ridaforolimus] ?
20.9 µM

Similarly, C[C@@H](NC1=CC=CC=C1C(O)=O)C/2=C/C(=C\N3C(=O)/C=C(\N=C23)N4CCOCC4)C [AZD-6482] ?
10.5 µM

Similarly, O=[S+]([O-])(NCCNC/C=C/c1ccc(Br)cc1)c1cccc2cnccc12 [H-89] ?
18.6 µM

Similarly, "O=C(Nc1ccc2[nH]nc(-c3ccncc3)c2c1)[C@@H]1CCN(CC(=O)N2CCN(c3ccc(-c4ncccn4)cc3)CC2)C1" ?
0.295 µM

Further cases:
I'd like to know its AC50 cell viability. The molecule in question is COc1cccc2c1C(=O)c1c(O)c3c(c(O)c1C2=O)C[C@@](O)(C(=O)CO)C[C@@H]3O[C@H]1C[C@H](N)[C@H](O)[C@H](C)O1 [Doxorubicin]
0.372 µM

Similarly, COc1cc2c(NC3CCN(CC4CCCCC4)CC3)nc(N3CCCN(C(C)C)CC3)nc2cc1OCCCN1CCCCC1 [UNC-0631] ?
7.42 µM

Similarly, CCCCNc1ncc2c(-c3ccc(CN4CCN(C)CC4)cc3)cn([C@H]3CC[C@H](O)CC3)c2n1 [UNC2025 (hydrochloride)] ?
1.66 µM

Similarly, OC[C@H]1O[C@H](C[C@@H]1O)N2/C=C(C(=O)NC2=O)/C(F)(F)F [Trifluridine] ?
2.63 µM

Similarly, O=C(Nc1cccc(Cl)c1)Nc1ncc(CCNc2ncnc3ccsc23)s1 [SNS-314] ?
18.6 µM

Similarly, CN1CCN(CC1)\C2=N\C3=C(NC4=C2C=CC=C4)C=CC(=C3)Cl [Clozapine] ?
20.9 µM

Similarly, COc1cc2nccc(Oc3ccc(NC(=O)NC4CC4)c(Cl)c3)c2cc1C(N)=O [Lenvatinib] ?
26.3 µM

Similarly, "Nc1ncnc2c1c(COc1cccc(Cl)c1)nn2C1CCOCC1" ?
18.6 µM

Similarly, "CC(C)C[C@H](NC(=O)c1cc2ccccc2s1)C(=O)N1CCN(C(=O)[C@H](CO)N[S+](=O)([O-])c2ccc(Cl)cc2Cl)CC1" ?
16.6 µM

Similarly, CN(C)C/C=C/C(=O)Nc1cc2c(Nc3ccc(F)c(Cl)c3)ncnc2cc1O[C@H]1CCOC1 [Afatinib] ?
4.68 µM

Similarly, CN1C(=O)C(=C/2N(C(=O)N(C3CC3)C(=O)C2=C1/NC4=CC=C(I)C=C4F)C5=CC=CC(=C5)NC(C)=O)\C [Trametinib] ?
0.0468 µM

// data source = the supplement of paper PMC10290057
